Entry source: patent US6133304A

# System Tested: MMP-3 (stromelysin) (Homo sapiens, UniProt P08254)
# Sequence (P08254 100-272 limits assumed): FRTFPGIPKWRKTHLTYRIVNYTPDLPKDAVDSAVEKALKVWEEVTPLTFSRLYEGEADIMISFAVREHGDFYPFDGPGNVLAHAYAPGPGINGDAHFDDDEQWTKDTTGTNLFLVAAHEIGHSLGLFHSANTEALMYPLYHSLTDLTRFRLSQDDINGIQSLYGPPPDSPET
Measured Attribute: pIC50
Remember, pIC50 is on a log scale: it is -log10 of the molar concentration.

Query: pIC50; subject: CC(C)CC(CC(=O)NO)C(=O)N[C@@H](CC(C)C)C(=O)N[C@@H](Cc1ccccc1)C(N)=O (stereo partly shown) [U24522] 7.70

====

# Assay Notes: PD 166793 plasma levels in SHHF rats (Example 1)
# Assay type: in vivo
# Setup Conditions: rat, po, 5 mg/kg/day PD 166793 in diet, 8 months
Measured Attribute: concentration at 5840 h
Don't forget the unit after the value.

Query: concentration at 5840 h; subject: CC(C)C(NS(=O)(=O)c1ccc(-c2ccc(Br)cc2)cc1)C(=O)O (stereo not shown) [PD 166793] 50.1 µg/mL

====

# Assay Notes: in vivo
# Setup Conditions: pig, po, 2 mg/kg/day
Measured Attribute: concentration at 1 h (ng/mL)
Give just the numeric value; ng/mL need not be written.

Query: concentration at 1 h; subject: CC(C)C(NS(=O)(=O)c1ccc(-c2ccc(Br)cc2)cc1)C(=O)O (stereo not shown) 10800
